assay: Quantitative highthroughput screen to assess conditional lethalithy of P12 Ichikawa cells grown in RPMI1640 with untreated serum (RPMI+s) (AID 1963881); settings: ATP luminescence, 48 h; viability; series mostly up to 45.8 µM; also: nearly all actives have a fitted effect of over 35% in size; also: potency is read from the fitted curve at half-maximal effect
Records with an inconclusive call do not appear. Activity calls are given as the source filed them. Calls follow the shape of the dose curve; as a rule, active = well fitted cell-killing curve with a large enough effect; inconclusive = small, poorly fitted or top-dose-only effect; inactive = flat fitted curve, though single readings scatter.
readout_name: Potency

COC(=O)N[C@H](C(=O)N[C@@H](Cc1ccccc1)[C@@H](O)CN(Cc1ccc(-c2ccccn2)cc1)NC(=O)[C@@H](NC(=O)OC)C(C)(C)C)C(C)(C)C    inactive
C=C1CCC2[C@](C)(CO)C(O)CC[C@]2(C)C1CC=C1C(=O)OCC1O (stereo partly drawn)    inactive
Cc1cnc(Nc2ccc(N3CCN(C)CC3)cc2)nc1Nc1cccc(S(=O)(=O)NC(C)(C)C)c1    7.43 µM (active)
CC1(CN2CCC(n3c(=O)[nH]c4ccccc43)CC2)OCc2ccccc2-n2cccc21 (stereo not drawn)    inactive
O=C(NCC1CCCCN1)c1cc(OCC(F)(F)F)ccc1OCC(F)(F)F (stereo not drawn)    1.66 µM (active)
CCCCCCCCCCCCCCCC(=O)OC[C@@H](NC(=O)C(Cl)Cl)[C@H](O)c1ccc([N+](=O)[O-])cc1    inactive
C[N+](C)([O-])CCNc1ccc(NCC[N+](C)(C)[O-])c2c1C(=O)c1c(O)ccc(O)c1C2=O    0.743 µM (active)

Then this compound:
State the recorded Potency for this entry: C[C@@H](Oc1cc(-c2cnn(C3CCNCC3)c2)cnc1N)c1c(Cl)ccc(F)c1Cl 16.6 µM (active)

All figures here come from PubChem BioAssay (NCATS).
